- Assay explanation: soluble fraction after stress (log2 fold change); higher = more stays soluble; pooled small domains, quantitative proteomics
- Condition description: stress: 50 degC

| Seq text | soluble fraction (log2) |
| --- | --- |
| HMEGFSAGQFVRASVDNTAFYLKRPKGDAVADKLLRRGASMKVISASGDYLKVELDSGEVGFVPPVMVE | 0.05 |
| HMVLELRIGQIVRGVLLQLVGEREGIVSVGGVPVRARLEAEIPLGRGVMLQVQPGSDANNILLKPV | -0.515 |
| HMDLPSSETLKVKLNLAKAYVTIEDFGAARRALDEVLSVSSLVDPDLTIQAKSLLAEIDQRS | -0.0514 |
| HMTTTYTVPKVTGMTLEEAREDPDVVGRFTIVEGEKVTSDTVPVGQIVSQEPAAHRQVGEDGLTITVNIS | 0.289 |
